- experiment.notes: Lipophilicity, logD of the compound
- Format: physicochemical
- condition.info: octanol/water
metric.name: logD

CN1CCC(S(=O)(=O)c2ccc3nc(NC(=O)NC(=O)c4cc(N5CCOCC5)ccc4Cl)sc3c2)CC1 = 2.3
COCCNCCCS(=O)(=O)c1ccc2nc(NC(=O)NC(=O)c3ccccc3Cl)sc2c1 = 1.3
CC(C)NCCS(=O)(=O)c1ccc2nc(NC(=O)NC(=O)c3ccccc3Cl)sc2c1 = 2.3
CN1CCN(CCCS(=O)(=O)c2ccc3nc(NC(=O)NC(=O)c4cc(-n5cccc5)ccc4Cl)sc3c2)CC1 = 2.6
CN1CCN(CCCS(=O)(=O)c2ccc3nc(NC(=O)NC(=O)c4cccc(-n5cccn5)c4Cl)sc3c2)CC1 = 1.6
Cc1cc(C)n(-c2ccc(Cl)c(C(=O)NC(=O)Nc3nc4ccc(S(=O)(=O)CCCN5CCN(C)CC5)cc4s3)c2)n1 = 2.5

* * *

- experiment.notes: Ratio of drug level in homogenized brain to plasma in Han-Wistar rat measured 1 hr after iv bolus then iv infusion by LC-MS/MS method
- Type: ADME, organism-based
- condition.info: read-out: BPR
Parameter Kp at 1 h: see the listing below.
metric.name: Kp at 1 h

CCc1ccc(Cl)c(C(=O)NC(=O)Nc2nc3ccc(S(=O)(=O)CCCN4CCN(C)CC4)cc3s2)c1 = 0.036
CCOc1ccc(Cl)c(C(=O)NC(=O)Nc2nc3ccc(S(=O)(=O)CCCN4CCN(C)CC4)cc3s2)c1 = 0.052
CN1CCN(CCCS(=O)(=O)c2ccc3nc(NC(=O)NC(=O)c4cc(C5CC5)ccc4Cl)sc3c2)CC1 = 0.18
CN1CCN(CCCS(=O)(=O)c2ccc3nc(NC(=O)NC(=O)c4cc5c(ccn5C)cc4Cl)sc3c2)CC1 = 0.049

* * *

- experiment.notes: Ratio of drug level in homogenized brain to plasma in CD1 mouse at 2 mg/kg, po measured after 6 hrs by LC-MS/MS method
- Assay type: ADME, organism-based
- Parameters: dose 2 mg/kg, route oral
- condition.info: read-out: BPR
metric.name: Kp at 6 h

Cc1ccnn1-c1ccc(Cl)c(C(=O)NC(=O)Nc2nc3ccc(S(=O)(=O)C4CCN(C)CC4)cc3s2)c1 = 0.9

* * *

- target.or.system: Growth hormone secretagogue receptor type 1 (Homo sapiens)
- Sequence (Q92847 whole entry): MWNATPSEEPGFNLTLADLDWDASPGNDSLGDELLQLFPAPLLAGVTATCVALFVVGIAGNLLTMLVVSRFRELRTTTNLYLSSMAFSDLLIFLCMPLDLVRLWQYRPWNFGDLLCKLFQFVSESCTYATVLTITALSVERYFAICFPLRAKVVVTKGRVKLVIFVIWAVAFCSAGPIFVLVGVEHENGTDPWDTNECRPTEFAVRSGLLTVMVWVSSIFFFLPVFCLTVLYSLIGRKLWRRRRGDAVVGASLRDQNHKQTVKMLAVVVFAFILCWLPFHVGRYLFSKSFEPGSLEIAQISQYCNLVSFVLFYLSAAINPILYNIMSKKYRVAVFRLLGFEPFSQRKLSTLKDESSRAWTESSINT
- experiment.notes: Displacement of [125I]human ghrelin from human GHS-R1a expressed in HEK cell membranes after 60 mins by gamma counting method
The threshold is 4 nM. Values of IC50 beneath it are tagged Y; values meeting or exceeding it are tagged N.

CS(=O)(=O)c1ccc2nc(NC(=O)NC(=O)c3ccccc3Cl)sc2c1 = N
CCN(CC)CCCS(=O)(=O)c1ccc2nc(NC(=O)NC(=O)c3cc(-n4cccc4)ccc3Cl)sc2c1 = Y
COc1ccc2nc(NC(=O)NC(=O)c3ccccc3Cl)sc2c1 = N
CN1CCC(S(=O)(=O)c2ccc3nc(NC(=O)NC(=O)c4cc(N5CCCC5)ccc4Cl)sc3c2)CC1 = Y
CS(=O)(=O)c1ccc2sc(NC(=O)NC(=O)c3ccccc3Cl)nc2c1 = N
CN1CCN(CCCS(=O)(=O)c2ccc3nc(NC(=O)NC(=O)c4cc5c(ccn5C)cc4Cl)sc3c2)CC1 = Y
CCOc1ccc(Cl)c(C(=O)NC(=O)Nc2nc3ccc(S(=O)(=O)CCCN4CCN(C)CC4)cc3s2)c1 = Y
CN1CCCN(CCCS(=O)(=O)c2ccc3nc(NC(=O)NC(=O)c4ccccc4Cl)sc3c2)CC1 = N
CN1CCN(CCCS(=O)(=O)c2ccc3nc(NC(=O)NC(=O)c4cc(N5CCCC5)ccc4Cl)sc3c2)CC1 = Y
COc1ccc2nc(NC(=O)NC(=O)c3c(Cl)cccc3Cl)sc2c1 = N
CCc1ccc(Cl)c(C(=O)NC(=O)Nc2nc3ccc(S(=O)(=O)CCCN4CCN(C)CC4)cc3s2)c1 = Y
CN1CCC(S(=O)(=O)c2ccc3nc(NC(=O)NC(=O)c4cc5c(cc4Cl)CCN5C)sc3c2)CC1 = N
CCN(CC)CCCS(=O)(=O)c1ccc2nc(NC(=O)NC(=O)c3cc(N4CCOCC4)ccc3Cl)sc2c1 = Y
CN1CCC(S(=O)(=O)c2ccc3nc(NC(=O)NC(=O)c4cc(N5CCCC5)c(C#N)cc4Cl)sc3c2)CC1 = Y
CN1CCN(CCCS(=O)(=O)c2ccc3nc(NC(=O)NC(=O)c4ccccc4Cl)sc3c2)CC1 = Y
CN1CCC(S(=O)(=O)c2ccc3nc(NC(=O)NC(=O)c4ccccc4Cl)sc3c2)CC1 = N
CN1CCN(CCCS(=O)(=O)c2ccc3nc(NC(=O)NC(=O)c4cc(-c5ccccn5)ccc4Cl)sc3c2)CC1 = Y
COCCNCCCS(=O)(=O)c1ccc2nc(NC(=O)NC(=O)c3ccccc3Cl)sc2c1 = N
